Entry source: PubChem BioAssay AID1996

Measured solubility kinetic, listed per entry for reference.
details: buffer; pH 7.4; 200.0 µM
readout: solubility kinetic (mg/mL)

molecule=COC1(NC(=O)c2ccccc2)C(C)=CC(=O)C=C1C readout="solubility kinetic" censoring_sign== quantitative_result=0.04
molecule="CC1CCc2c(sc(NC(=O)c3ccco3)c2C(=O)O)C1 (stereo not given)" readout="solubility kinetic" censoring_sign=> quantitative_result=0.0458
molecule=Cc1c(Cl)cnc(NC(=O)COC(=O)C2CC2)c1Cl readout="solubility kinetic" censoring_sign=> quantitative_result=0.0455
molecule=NC(=O)c1ccc(NC(=O)CCC(=O)c2cccs2)cc1 readout="solubility kinetic" censoring_sign== quantitative_result=0.0446
molecule=Nc1ccc(-c2cc3ccccc3oc2=O)cc1 readout="solubility kinetic" censoring_sign== quantitative_result=0.0179
molecule=O=C(NCc1cccnc1)c1ccccc1NC(=O)c1c(F)cccc1F readout="solubility kinetic" censoring_sign=> quantitative_result=0.0551
molecule="Cc1ccc(C(C)NC(=O)c2ccncc2)cc1C (stereo not given)" readout="solubility kinetic" censoring_sign=> quantitative_result=0.0381
molecule="CCCCC(=O)NC1(C(F)(F)F)NC(=O)N(C)C1=O (stereo not given)" readout="solubility kinetic" censoring_sign=> quantitative_result=0.0422
molecule=Fc1ccccc1NC(=S)N1CCOCC1 readout="solubility kinetic" censoring_sign=> quantitative_result=0.036
molecule=CCC/C(O)=C1\C(=O)CCCC1=NCCc1c(C)[nH]c2ccc(C)cc12 readout="solubility kinetic" censoring_sign== quantitative_result=0.0004
molecule=O=C(CSCc1ccccc1Cl)Nc1ccc(C(=O)O)cc1 readout="solubility kinetic" censoring_sign=> quantitative_result=0.0504
molecule=Cc1ccc(NC(=O)CCCNC(=O)c2ccc(Cl)cc2)nc1 readout="solubility kinetic" censoring_sign== quantitative_result=0.0041
molecule=COc1ccc2[nH]c3c(=O)n(Cc4ccncc4)cnc3c2c1 readout="solubility kinetic" censoring_sign== quantitative_result=0.0073
molecule=CCOC(=O)C1CCN(S(=O)(=O)c2cn(C)c(C)n2)CC1 readout="solubility kinetic" censoring_sign=> quantitative_result=0.0473
molecule="Nc1ccccc1C(O)(Cc1ccccc1)c1ccccc1 (stereo not given)" readout="solubility kinetic" censoring_sign== quantitative_result=0.0173
molecule=CC(=O)N1CCc2ccc(S(=O)(=O)N3CCc4ccccc43)cc21 readout="solubility kinetic" censoring_sign== quantitative_result=0.0005
molecule="CC1CCC/C(=C\\Nc2ccc(C(=O)O)c(O)c2)C1=O (stereo not given)" readout="solubility kinetic" censoring_sign== quantitative_result=0.0394
molecule="Cc1cc(N)nc(SCC(=O)N2C(C)CCCC2C)n1 (stereo not given)" readout="solubility kinetic" censoring_sign== quantitative_result=0.0383
molecule=COc1cccc(NC(=O)CC(=O)c2ccc([N+](=O)[O-])cc2)c1 readout="solubility kinetic" censoring_sign== quantitative_result=0.0043
molecule=Cc1ccc(CNC(=O)/C=C/C(=O)O)cc1 readout="solubility kinetic" censoring_sign=> quantitative_result=0.0329
molecule=CCCN(C(=O)CCl)C1=CCCCC1 readout="solubility kinetic" censoring_sign== quantitative_result=0.031
molecule=Cc1cccc(N2CCN(C(=O)NC3CCCCC3)CC2)c1C readout="solubility kinetic" censoring_sign== quantitative_result=0.0007
molecule=NC(=O)C1CCN(C(=O)c2ccc(Oc3cc(Cl)cc(Cl)c3)o2)CC1 readout="solubility kinetic" censoring_sign== quantitative_result=0.0554
molecule=O=C1CC(=O)N(c2ccccc2F)C(=O)N1 readout="solubility kinetic" censoring_sign=> quantitative_result=0.0333
molecule=CSc1ncc(C(=O)Nc2ccccc2C)c(C)n1 readout="solubility kinetic" censoring_sign=> quantitative_result=0.041
